Test system: green foxtail (Setaria viridis, SEV)
RUN DESCRIPTION: Post-emerge test, green foxtail
Assay type: in vivo
STUDY CONDITIONS: 250 g ai/ha, 14 days after application, rating scale 0-100 (0 no damage, 100 complete death)
QUANTITY MEASURED: Post-emerge Herbicidal Activity SEV (phytotoxicity rating)
// no unit string in output, number only

[ask] Quick one: Post-emerge Herbicidal Activity SEV (phytotoxicity rating) of CC(C)C1C(=O)Nc2c(N3C(=O)C4=C(CCCC4)C3=O)c(F)cc3c2N1C(=O)CO3 (centres unmarked) ?
[reply] 0

[ask] # get_value(readout='Post-emerge Herbicidal Activity SEV (phytotoxicity rating)', item= O=C1Nc2c(-c3ncc(C(F)(F)F)cc3Cl)c(F)cc3c2N(C(=O)CO3)C1c1ccccc1 (centres unmarked) )
[reply] 0

====

Reported Pre-emerge Herbicidal Activity IPH (phytotoxicity rating) is given for each of the following compounds.
System: ivyleaf morningglory (Ipomoea hederacea, IPH)
RUN DESCRIPTION: Pre-emerge test, ivyleaf morningglory
Type: in vivo
STUDY CONDITIONS: 250 g ai/ha, 14 days after application, rating scale 0-100 (0 no damage, 100 complete death)

Observe how each entry below is paired with its result.
CC1Oc2cc(F)c(-c3nn(C)c(C(F)(F)F)c3Cl)c3c2N(C1=O)C(C)C(=O)N3 (mixture of isomers) [1-50]    90
CC1Oc2cc(F)c(-c3nn(C)c(OC(F)F)c3Cl)c3c2N(CC(=O)N3)C1=O (centres unmarked)    100
CC1C(=O)Nc2c(-c3ncc(C(F)(F)F)cc3Cl)c(F)cc3c2N1C(=O)CO3 (centres unmarked)    100
CCC1C(=O)Nc2c3c(cc(F)c2-n2c(=O)cc(C(F)(F)F)n(C)c2=O)OCC(=O)N31 (centres unmarked)    100
Cn1nc(-c2c(F)cc3c4c2NC(=O)C(Cl)N4C(=O)CO3)c(Cl)c1OC(F)F (centres unmarked)    60
CCC1C(=O)Nc2c(-c3ncc(C(F)(F)F)cc3Cl)c(F)cc3c2N1C(=O)CO3 (centres unmarked)    100
Cn1c(C(F)(F)F)cc(=O)n(-c2c(F)cc3c4c2NC(=O)CN4C(=O)CO3)c1=O    100

[ask] Given "Cn1nc(-c2c(F)cc3c4c2NC(=O)C(C)(C)N4C(=O)CO3)c(Cl)c1C(F)(F)F" , state its recorded Pre-emerge Herbicidal Activity IPH (phytotoxicity rating).
[reply] 100

====

Entries and their Post-emerge crop damage RICE (phytotoxicity rating) values follow.
System: upland rice (Oryza sp., var.Tebonnet, RICE)
RUN DESCRIPTION: Post-emerge test, crop damage upland rice
Format: in vivo
STUDY CONDITIONS: post-emerge, 250 g ai/ha, 14 days after application, rating scale 0-100 (0 no damage, 100 complete death)
Kindly provide the number alone.

Past entries and their recorded results:
CC1C(=O)Nc2c(-c3nn(C)c(OC(F)F)c3Cl)c(F)cc3c2N1C(=O)C(C)(C)O3 (centres unmarked)    0
CC1Oc2cc(F)c(-c3nn(C)c(C(F)(F)F)c3Cl)c3c2N(C1=O)C(C(C)C)C(=O)N3 (mixture of isomers)    0
CCC1C(=O)Nc2c(-c3nn(C)c(OC(F)F)c3Cl)c(F)cc3c2N1C(=O)CO3 (centres unmarked)    100
CC(C)C1C(=O)Nc2c3c(cc(F)c2-n2c(=O)cc(C(F)(F)F)n(C)c2=O)OCC(=O)N31 (centres unmarked)    35

Here's the next entry for you.
[ask] What Post-emerge crop damage RICE (phytotoxicity rating) appears in the records for this compound with upland rice (Oryza sp., var.Tebonnet, RICE)? "O=C1CN2C(=O)COc3cc(F)c(-c4ncc(C(F)(F)F)cc4Cl)c(c32)N1"
[reply] 75
